System: Candida albicans
ASSAY_METHOD_TEXT: Antifungal activity against Candida albicans by broth dilution method
Assay type: functional
Listing: MIC of selected molecules
ENDPOINT: MIC (µg/mL)

>  <SMILES_REPRESENTATION>
COc1cc(-c2cc3c(O)cccc3o2)c(C)c(O)c1C

>  <REPORTED_RESULT>
31.3

$$$$
>  <SMILES_REPRESENTATION>
COc1cc(O)c(C)c(-c2cc3c(O)cc(OC)cc3o2)c1

>  <REPORTED_RESULT>
31.3

$$$$
>  <SMILES_REPRESENTATION>
COc1cc(-c2cc3c(O)cccc3o2)c(C)c(OC)c1C

>  <REPORTED_RESULT>
31.3

$$$$
>  <SMILES_REPRESENTATION>
C[C@@H]1[C@H](O)[C@@H](C)/C=C/C=C/C=C/C=C/C=C/C=C/C=C/[C@H](O[C@@H]2O[C@H](C)[C@@H](O)[C@H](N)[C@@H]2O)C[C@@H]2O[C@](O)(C[C@@H](O)C[C@@H](O)[C@H](O)CC[C@@H](O)C[C@@H](O)CC(=O)O[C@H]1C)C[C@H](O)[C@H]2C(=O)O

>  <REPORTED_RESULT>
15.6

$$$$
>  <SMILES_REPRESENTATION>
COc1cc(OC)c(C)c(-c2cc3c(O)cc(OC)cc3o2)c1

>  <REPORTED_RESULT>
15.6

$$$$

* * *

Listing: MIC of selected compounds
System: Klebsiella pneumoniae
ASSAY_METHOD_TEXT: Antibacterial activity against Klebsiella pneumoniae by broth dilution method
Type: functional
ENDPOINT: MIC

>  <SMILES_REPRESENTATION>
COc1cc(OC)c(C)c(-c2cc3c(O)cc(OC)cc3o2)c1

>  <REPORTED_RESULT>
125 µg/mL

$$$$
>  <SMILES_REPRESENTATION>
COc1cc(-c2cc3c(O)cccc3o2)c(C)c(OC)c1C

>  <REPORTED_RESULT>
62.5 µg/mL

$$$$
>  <SMILES_REPRESENTATION>
COc1cc(O)c(C)c(-c2cc3c(O)cc(OC)cc3o2)c1

>  <REPORTED_RESULT>
62.5 µg/mL

$$$$
>  <SMILES_REPRESENTATION>
COc1cc(-c2cc3c(O)cccc3o2)c(C)c(O)c1C

>  <REPORTED_RESULT>
62.5 µg/mL

$$$$
